B1: CDS2 (parent)
chain: IHSIALSTFASLIGPFGGFFASGF

Variants of: B1
Assay overview: protein stability index of a GFP-peptide fusion (GPS, HEK-293T) (PSI 1-6); higher = more stable;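 also: lentivirally expressed fusions sorted by FACS into six bins by GFP to DsRed ratio, PSI derived from sequencing read proportions per bin multiplied by bin number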
Details: c terminus: a fixed tail appended
Form field: protein stability index (one value per entry).
// return just the number, without any unit appended

Illustrative cases are given below, each with its answer.
G17Y; 2.06
F19I; 2.97
P15T; 3.98
A21W; 2.61
G18L; 2.48

[in] Looking for the measured protein stability index of A21Q , can you help?
[out] 3.25

[in] Also need S7H , thanks.
[out] 3.45

[in] Also need S11G , thanks.
[out] 2.9

[in] Also need S11Q , thanks.
[out] 3.26

[in] Also need G18I , thanks.
[out] 3.04

[in] Also need S11A , thanks.
[out] 2.88

[in] Also need F20L , thanks.
[out] 2.98

[in] Also need F9E , thanks.
[out] 1.92

[in] Also need F9P , thanks.
[out] 2.63

[in] Also need F9N , thanks.
[out] 2.11

[in] Also need I4W , thanks.
[out] 2.65

[in] Also need S22P , thanks.
[out] 3.67

[in] Also need G23D , thanks.
[out] 2.37

[in] Also need F9C , thanks.
[out] 2.62
